system: HCC-2998 colon; assay: NCI tumour cell line growth inhibition, 48 h
measurement name: TGI (µM)
Entry rule: numbers only, all in µM.

Known TGI results, listed for orientation:
compound: COc1cc(OC)cc(-c2ccc(-c3ccc(C(=N)N)cn3)s2)c1
measurement name: TGI
result number: 3.48

compound: Cc1ccc(NCCN(C)C)c2c(=O)c3cc(O)ccc3sc12
measurement name: TGI
result number: 10.4

compound: Clc1ccc(C2=NCON=C2c2ccc(Cl)cc2)cc1
measurement name: TGI
result number: 32.7

compound: O=C1CCS/C(=N/S(=O)(=O)c2ccc(N3N=C4c5ccccc5CC4C3c3cccs3)cc2)N1Cc1ccccc1 (configuration not stated)
measurement name: TGI
result number: 33.2

Lab book: TGI of CCOc1ccc(Nc2nc(-c3c(C)nc4ncccn34)cs2)cc1 noted as 15.7

The compound listed as COc1c(O)c2c3c(c1OC)-c1ccccc1CC3N(S(=O)(=O)c1ccc(C)cc1)CC2 (configuration not stated) shows TGI equal to 34.1

Reported TGI for O=CC1=CCC2c3[nH]c4ccccc4c3CCN2C1 (configuration not stated) was 253

// TGI lookup, compound = CCN(CC)CCOc1ccc2c(C)c(C(=O)OC)oc2c1C(=O)/C=C/c1ccc(OC)cc1 , result: 3.72

TGI in this record for CN(C)c1ccc(N=C2C=CC(=C(C#N)C#N)c3ccccc32)cc1 : 0.63

Lab note: measured TGI of CC(=O)C(C(C)=O)[C@H]1OC(C)(C)O[C@H]1[C@H]1COC(C)(C)O1 was 86

According to the records, this compound COc1ccc(/C=C/C(C)=N/OCC(=O)Nc2ccc(Cl)cc2)cc1 displays TGI of 15.8

What the record says about CNCc1ccc(-c2[nH]c3cc(F)cc4c3c2CCNC4=O)cc1 : TGI is 35.6
